Target: Human complement C1s enzyme (Homo sapiens (Human), UniProt P09871)
Sequence (P09871 438-688 limits assumed): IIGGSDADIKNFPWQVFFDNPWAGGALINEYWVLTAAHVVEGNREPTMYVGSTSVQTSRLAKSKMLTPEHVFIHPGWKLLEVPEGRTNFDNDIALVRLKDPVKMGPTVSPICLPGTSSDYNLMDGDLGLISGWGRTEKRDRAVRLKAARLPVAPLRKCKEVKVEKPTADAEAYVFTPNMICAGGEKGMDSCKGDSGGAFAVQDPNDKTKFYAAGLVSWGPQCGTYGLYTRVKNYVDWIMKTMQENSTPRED
Sequence (P09871 16-437 partner limits assumed): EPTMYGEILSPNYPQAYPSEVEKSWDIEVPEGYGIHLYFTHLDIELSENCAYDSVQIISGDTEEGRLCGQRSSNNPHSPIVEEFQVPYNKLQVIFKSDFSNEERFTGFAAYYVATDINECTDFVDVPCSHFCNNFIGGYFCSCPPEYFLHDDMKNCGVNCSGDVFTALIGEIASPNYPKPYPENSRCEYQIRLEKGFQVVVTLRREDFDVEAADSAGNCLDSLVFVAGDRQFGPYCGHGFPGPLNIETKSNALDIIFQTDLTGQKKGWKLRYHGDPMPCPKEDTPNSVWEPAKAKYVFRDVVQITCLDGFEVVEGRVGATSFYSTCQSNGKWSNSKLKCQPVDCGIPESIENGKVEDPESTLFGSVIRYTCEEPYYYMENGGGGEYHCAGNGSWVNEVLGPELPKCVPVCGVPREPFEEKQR
Experiment: Human C1s enzyme assay
Assay type: biochemical
Details: Human complement C1s enzyme 1.16 nM, substrate Z-L-Lys-SBzl 100 μM, assay of Example 3; read-out: IC50 (Stars)
assayEndpoint: IC50

Study these solved cases before continuing.
compound: C[C@@H](NC(=O)[C@@H]1CC2(CN1C(=O)CNC(=O)c1ccc3c(c1)Oc1ccccc1N3)OCCO2)c1cc(C(=N)N)cs1 [Compound 294]
result: < 100 nM

compound: CS(=O)(=O)c1ccc(-c2ccc(C(=O)NCC(=O)N3CC4(C[C@H]3C(=O)NCc3cc(C(=N)N)cs3)OCCO4)cc2)c(F)c1 [Compound 215]
result: < 100 nM

compound: C[C@@H](NC(=O)[C@@H]1C[C@@H](F)CN1C(=O)CNC(=O)c1ccc2c(c1)-c1ccccc1C2(F)F)c1cc(C(=N)N)cs1 [Compound 202]
result: < 100 nM

Supply recorded IC50 for N=C(N)c1csc(CNC(=O)[C@@H]2CC3(CN2C(=O)CN2Cc4cc(-c5ccccc5)ccc4C2=O)OCCO3)c1 [Compound 231] here. < 100 nM

Entry O=C(NCC(=O)N1CC2(C[C@H]1C(=O)NCc1cc(Nc3ncc[nH]3)cs1)OCCO2)c1ccc(Oc2ccc(F)cc2)cc1 [Compound 283] needs its IC50 filled in; supply it. > 1000 nM

Specify measured IC50 for C[C@@H](NC(=O)[C@@H]1C[C@](F)(CF)CN1C(=O)CNC(=O)c1ccc2c(c1)Oc1ccccc1S2)c1cc(C(=N)N)cs1 [Compound 327] . < 100 nM
